Values compiled from ChEMBL document CHEMBL1201862.

# System: HCT-116
# measurement protocol: NCI tumour cell line growth inhibition, 48 h
Activity calls are given as the source filed them. No stated cut-off is given here; in the data, active = GI50 up to about 1.1 µM and inactive = higher.
GI50 for assorted compounds
readout label: GI50

> print(dat)
                                    compound  readout.label       measured.value
 1  C[n+]1c(-c2ccc(/C=N/NC(=O)c3ccc(C(=O)N/N=C/c4ccc(-c5cn6ccccc6[n+]5C)cc4)cc3)cc2)cn2ccccc21           GI50  > 100 µM (inactive)
 2  NNC(=S)N/N=C(\C(=O)Nc1cccc(O)c1)C1C(=O)NC(=S)NC1=O           GI50  > 100 µM (inactive)
 3  Cc1ccc2c(C)c3ccc4ccccc4c3c[n+]2c1.[O-][Cl+3]([O-])([O-])[O-]           GI50   27.5 µM (inactive)
 4  CC(Cc1ccc2c(c1)OCO2)N(C)C(=O)C1=CCN(C)CC1 (stereo not given)           GI50  > 100 µM (inactive)
 5  COc1ccc(NC2Oc3cc4c(cc3C(c3cc(OC)c(O)c(OC)c3)C2C)OCO4)cc1 (stereo not given)           GI50   4.43 µM (inactive)
 6  CCC1(O)CN(CCOC)[C@H]2C[C@@H]1C(=O)c1[nH]c3ccccc3c12 (stereo not given in full)           GI50  > 100 µM (inactive)
 7  CNC(=O)[C@H](Cc1ccccc1)NC(=O)N(CCC#N)CCN(C(=O)N[C@@H](Cc1ccccc1)C(=O)OC)c1ccccc1           GI50  > 100 µM (inactive)
 8  CSc1nc2c(c(=O)n1C)N=C(c1ccc(Cl)cc1)CC(c1ccccc1)N2 (stereo not given)           GI50   27.2 µM (inactive)
 9  Cc1ccccc1-c1c(N)nc(NC#N)nc1C(=O)Nc1ccccc1           GI50  > 100 µM (inactive)
10  CC(C)=C[C@@H]1C[C@H](C)[C@H]2CC[C@H](C)[C@H]3C(=O)C(O)=C(C)C(=O)[C@]123           GI50   88.5 µM (inactive)
11  COc1cc(NCc2ccc3oc(=O)c(-c4ccccc4)nc3c2)cc(OC)c1OC           GI50   > 10 µM (inactive)
12           COc1ccc2oc(-c3cccnc3)cc(=O)c2c1           GI50   80.7 µM (inactive)
13  O=C(OCC12CC3CC(CC(C3)C1)C2)c1ccc(NCc2cc(O)ccc2O)cc1           GI50   2.26 µM (inactive)
14  CCCCCC[N+](C)(C)Cc1ccc(C[N+](C)(C)CCCCCC)cc1           GI50   3.71 µM (inactive)
15  CC1=C(C(=O)Nc2cccc(C(F)(F)F)c2)C(c2ccc(O)cc2)C(C(=O)Nc2cccc(C(F)(F)F)c2)=C(C)N1           GI50   14.6 µM (inactive)
16             [N-]=[N+]=C1N=CN=C1c1nc[nH]n1           GI50     25 µM (inactive)
17             CN[C@@H](C)[C@@H](NC)c1ccccc1           GI50  > 100 µM (inactive)
18  CC(=O)N1C2=CCCC2(C)c2ccccc21 (stereo not given)           GI50   37.1 µM (inactive)
19  CC(C)C1=CC2=C(C(=O)C1=O)C13CCCC(C)(C)C1CC2OC3=O (stereo not given)           GI50   18.3 µM (inactive)
20  Cc1nc2ccc(C(F)(F)F)cc2nc1Nc1ccc(Cl)c(Cl)c1           GI50   10.5 µM (inactive)
